# assayed system: Nuclear receptor ROR-gamma (Mus musculus)
# experiment description: qHTS for inhibitors of ROR gamma transcriptional activity; note: nearly all actives have a fitted effect of over 60% in size
# experimental context: Drosophila S2 Gal4-RORgamma UAS-luciferase reporter, 20 h; series mostly up to 53.6 µM
Screen size: about 310,000 compounds; about 17,000 (5.5%) were called active. About 11% were inconclusive and are not listed. Calls come from the whole dose curve; as a rule, active = well fitted inhibition curve with a large enough effect; inconclusive = small, poorly fitted or top-dose-only effect, or effect the other way; inactive = no such curve, though single readings can be large or run the other way. This is one part of a sample in which actives are shown more often than they occur.
Reply using exactly one outcome from TRUE (active), FALSE (inactive)

Hey, what did the test say about FC(F)(F)c1ccc(-n2cn[nH]c2=S)cc1 ?
TRUE

Lab log entry: CN(C)CCOC1c2ccccc2-c2ccccc21 — outcome as called in the assay?
FALSE

What call does the record list for C=CCNC(=O)c1ccccc1SCc1c(C)noc1C ?
FALSE

For Cc1cccc(C(=O)Nc2ccccc2N2CCN(c3ccc(F)cc3)CC2)c1 , what call appears in the results of this test?
FALSE

Hey, what did the test say about Cc1cccc(C(=O)NC(=S)N2CCN(c3ccc([N+](=O)[O-])cc3)CC2)c1 ?
TRUE

Entry COc1ccc(CCNC(=O)Cc2ccc(C)cc2)cc1OC : call = ?
FALSE

Tell me the assay call for Cc1nnc(N/N=C/C2CC=CCC2)[nH]c1=O (stereo unspecified) please.
TRUE

For COc1ccc(CCNC(=S)NC(=O)/C=C/c2ccc(C)cc2)cc1OC , which call appears in the assay record?
TRUE

Outcome? CCOc1ccc(-n2c(SCC(N)=O)nnc2-c2ccco2)cc1
FALSE

Test call, this molecule: COc1ccc(S(=O)(=O)n2nc(C)c(S(=O)(=O)N3CCOCC3)c2C)cc1
FALSE

Per the records of this test, what outcome belongs to COc1ccc(CCNC(=O)NS(=O)(=O)c2ccc(C)cc2)cc1OC ?
FALSE

---

Record form. Attribute: activity change, negative = inhibition. Fill in for each entry.
# assayed system: Nuclear receptor ROR-gamma (Mus musculus) (UniProt P51450)
# Sequence (P51450 whole entry, looked up): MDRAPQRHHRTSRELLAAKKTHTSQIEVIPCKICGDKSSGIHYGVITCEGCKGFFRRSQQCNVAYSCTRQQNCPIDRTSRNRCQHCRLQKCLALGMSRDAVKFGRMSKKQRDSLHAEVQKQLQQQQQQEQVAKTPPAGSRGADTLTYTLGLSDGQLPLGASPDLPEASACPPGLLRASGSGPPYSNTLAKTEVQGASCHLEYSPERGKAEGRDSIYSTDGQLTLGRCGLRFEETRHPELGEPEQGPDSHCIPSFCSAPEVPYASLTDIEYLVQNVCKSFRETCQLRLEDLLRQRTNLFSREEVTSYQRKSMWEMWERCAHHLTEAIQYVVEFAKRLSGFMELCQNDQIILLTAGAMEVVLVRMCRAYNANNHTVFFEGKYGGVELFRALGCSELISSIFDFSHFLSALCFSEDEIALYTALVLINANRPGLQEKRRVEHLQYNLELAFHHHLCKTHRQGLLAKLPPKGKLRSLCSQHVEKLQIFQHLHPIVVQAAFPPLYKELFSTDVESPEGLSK
# experiment description: qHTS for inhibitors of ROR gamma transcriptional activity; note: nearly all actives have a fitted effect of over 60% in size; for activity change, negative = inhibition: % is set by controls: 0 for no effect and ±100 for the full control effect
# experimental context: Drosophila S2 Gal4-RORgamma UAS-luciferase reporter, 20 h; series mostly up to 53.6 µM
The campaign covered roughly 310,000 compounds. About 17,000 (5.5%) were called active. Not shown: some 11% with an inconclusive outcome. This excerpt belongs to a sample that is enriched for actives.

I looked up CCCC[C@]12Cc3cc(OC)c(OC)cc3C(O1)C1=C(CC3(CCCCC3)OC1=O)O2 and its activity change, negative = inhibition for Nuclear receptor ROR-gamma (Mus musculus) (UniProt P51450) was 3.02% [at 10 µM] (inactive)

Summary line: CCOCCCNc1nc(-c2ccccc2)nc2ccccc12 , Nuclear receptor ROR-gamma (Mus musculus) (UniProt P51450), reported activity change, negative = inhibition = 24.9% [at 1.91 µM] (inactive)

Field activity change, negative = inhibition (system: Nuclear receptor ROR-gamma (Mus musculus) (UniProt P51450)) for entry CC(C)(C)NC(=O)CSc1nnc(NC(=O)CCc2ccccc2)s1 = 5.59% [at 1.91 µM] (inactive)

For the compound Cc1ccc(OC(=O)c2cncc(Br)c2)c(C)c1 , the measured activity change, negative = inhibition on Nuclear receptor ROR-gamma (Mus musculus) (UniProt P51450) was -23% [at 1.91 µM] (inactive)

Value sought: activity change, negative = inhibition, system Nuclear receptor ROR-gamma (Mus musculus) (UniProt P51450), item Cc1cccc(NC(=O)c2cccc(C(=O)Nc3cccc(C)c3C)n2)c1C . Result: -10.9% [at 1.91 µM] (inactive)

Field activity change, negative = inhibition (Nuclear receptor ROR-gamma (Mus musculus) (UniProt P51450)), entry CC(=O)OC(C(=O)NC1CCCCC1)c1ccccc1 (centres undefined) : -6.92% [at 10 µM] (inactive)

The compound Cc1ccc(Cl)c(OCC(=O)N2CCc3ccccc3C2)c1 , when measured on Nuclear receptor ROR-gamma (Mus musculus) (UniProt P51450), yielded activity change, negative = inhibition of 3.92% [at 1.91 µM] (inactive)

Nuclear receptor ROR-gamma (Mus musculus) (UniProt P51450) activity change, negative = inhibition of CCN(C(=O)c1cc([N+](=O)[O-])ccc1NCc1cccnc1)c1ccccc1 is 11.5% [at 1.91 µM] (inactive)

The compound OCC(CO)NC1C[C@](O)(CO)[C@@H](O)[C@H](O)[C@H]1O (some centres undefined) , when measured on Nuclear receptor ROR-gamma (Mus musculus) (UniProt P51450), yielded activity change, negative = inhibition of 4.55% [at 10 µM] (inactive)

Observed activity change, negative = inhibition, Nuclear receptor ROR-gamma (Mus musculus) (UniProt P51450), COc1ccc(CCn2c(-c3ccco3)nc3nc4ccccc4nc32)cc1OC : -7.43% [at 10 µM] (inactive)

Kindly note: Nuclear receptor ROR-gamma (Mus musculus) (UniProt P51450), Cc1ccc(NC(=O)NC(=O)c2ccccc2)cc1F , activity change, negative = inhibition value reported: 8.25% [at 1.91 µM] (inactive)

I looked up COc1ccc(/C=N/Nc2nc(-c3ccc(C)cc3)c(C#N)c(=O)[nH]2)cc1 and its activity change, negative = inhibition for Nuclear receptor ROR-gamma (Mus musculus) (UniProt P51450) was 20.4% [at 1.91 µM] (inactive)

Considering CCc1ccccc1NC(=S)Nc1cc(OC)c(NC(=O)C(C)C)cc1OC , its activity change, negative = inhibition with Nuclear receptor ROR-gamma (Mus musculus) (UniProt P51450) was recorded as -14.6% [at 1.91 µM] (inactive)

For the compound COc1ccc(C(=O)O/N=C(\N)c2ccccn2)cc1[N+](=O)[O-] , the measured activity change, negative = inhibition on Nuclear receptor ROR-gamma (Mus musculus) (UniProt P51450) was -42.4% [at 1.91 µM] (inactive)

// returns activity change, negative = inhibition for CC(=O)Nc1ccc(C(=O)Nc2nc(-c3cc(C)n(Cc4ccccc4)c3C)cs2)cc1 with Nuclear receptor ROR-gamma (Mus musculus) (UniProt P51450); value = 3.29% [at 10 µM] (inactive)

Nuclear receptor ROR-gamma (Mus musculus) (UniProt P51450) activity change, negative = inhibition of Cc1cc(C(F)(F)F)n2ncc(-c3ccccc3)c2n1 is -12.2% [at 0.365 µM] (inactive)

Known value: Nuclear receptor ROR-gamma (Mus musculus) (UniProt P51450) activity change, negative = inhibition of the compound CCOc1cc(NC(=O)c2ccccc2C(=O)O)c(OCC)cc1NC(=O)c1ccccc1F equals 19.6% [at 1.91 µM] (inactive)

Measured activity change, negative = inhibition for this entry COc1ccc(S(=O)(=O)Nc2ccc(O)c(Sc3nc4ccccc4s3)c2)cc1 on Nuclear receptor ROR-gamma (Mus musculus) (UniProt P51450): 1.49% [at 10 µM] (inactive)

Entry CCOc1ccc(CC(=O)NC2CCN(Cc3ccccc3)CC2)cc1 , tested on Nuclear receptor ROR-gamma (Mus musculus) (UniProt P51450), has a reported activity change, negative = inhibition of 11.1% [at 1.91 µM] (inactive)

Tested system Nuclear receptor ROR-gamma (Mus musculus) (UniProt P51450); activity change, negative = inhibition recorded for COc1cc(C(=O)Nn2c(CC(C)C)nc3ccccc3c2=O)cc(OC)c1OC was -37% [at 1.91 µM] (inactive)

Entry N#Cc1ccc(CSc2ncccn2)cc1 : activity change, negative = inhibition on Nuclear receptor ROR-gamma (Mus musculus) (UniProt P51450) = -36.2% [at 1.91 µM] (inactive)

Noted activity change, negative = inhibition for COc1cc(C(=S)N2CCOCC2)cc(OC)c1OC(=O)c1ccc([N+](=O)[O-])cc1[N+](=O)[O-] , tested on Nuclear receptor ROR-gamma (Mus musculus) (UniProt P51450): -8.5% [at 1.91 µM] (inactive)

The reported activity change, negative = inhibition value, Nuclear receptor ROR-gamma (Mus musculus) (UniProt P51450), for COc1ccc(/C=C/NC(=O)c2ccc(OC)cc2)cc1 reads -26.7% [at 10 µM] (inactive)

Item CC(C)CN(Cc1c(O)ccc2c(=O)c(-c3ccccc3)coc12)CC(C)C was tested on Nuclear receptor ROR-gamma (Mus musculus) (UniProt P51450); the reported activity change, negative = inhibition is 27% [at 1.91 µM] (inactive)

Tested system Nuclear receptor ROR-gamma (Mus musculus) (UniProt P51450); activity change, negative = inhibition recorded for O=C1OC2(CCCCC2)CC2=C1C1O[C@](c3ccsc3)(Cc3ccccc31)O2 was -3.37% [at 10 µM] (inactive)

Known value: Nuclear receptor ROR-gamma (Mus musculus) (UniProt P51450) activity change, negative = inhibition of the compound Cc1[nH]c2ccc(S(N)(=O)=O)cc2c1C equals -1.39% [at 10 µM] (inactive)

Value sought: activity change, negative = inhibition, system Nuclear receptor ROR-gamma (Mus musculus) (UniProt P51450), item O=C(CCOc1ccccc1)NCc1ccccc1 . Result: 5.22% [at 0.365 µM] (inactive)

Item: O=c1c2ccccc2ncn1CCCCOc1ccccc1F | System: Nuclear receptor ROR-gamma (Mus musculus) (UniProt P51450) | activity change, negative = inhibition: 12.9% [at 1.91 µM] (inactive)

Lab entry: Nuclear receptor ROR-gamma (Mus musculus) (UniProt P51450) assay, compound N#CC1=C(SCc2ccccc2)NC(=O)C(C#N)C12CCCC2 (centres undefined) , activity change, negative = inhibition = 26.7% [at 0.365 µM] (inactive)

Known value: Nuclear receptor ROR-gamma (Mus musculus) (UniProt P51450) activity change, negative = inhibition of the compound O=S(=O)(NC1CC2CCC1C2)c1ccc(Cl)cc1 (centres undefined) equals 44% [at 1.91 µM] (inactive)

// compound CCOC(=O)C1=C(C)NC(=S)NC1c1cccs1 (centres undefined) , assay Nuclear receptor ROR-gamma (Mus musculus) (UniProt P51450), activity change, negative = inhibition value: -23.4% [at 10 µM] (inactive)

Record NC(=O)C(=O)N/N=C/c1ccc([N+](=O)[O-])o1 / Nuclear receptor ROR-gamma (Mus musculus) (UniProt P51450), activity change, negative = inhibition recorded as -19.4% [at 10 µM] (inactive)

# value of activity change, negative = inhibition, Nuclear receptor ROR-gamma (Mus musculus) (UniProt P51450), item CC(=O)c1cccc(NC(=O)C2COc3ccccc3O2)c1 (centres undefined) = -30.8% [at 1.91 µM] (inactive)

For COc1ccc(COC(=O)N/N=C(\C)CC(=O)Nc2ccc(Cl)cc2)cc1 on Nuclear receptor ROR-gamma (Mus musculus) (UniProt P51450), measured activity change, negative = inhibition was 5.64% [at 10 µM] (inactive)

Fill in: Nuclear receptor ROR-gamma (Mus musculus) (UniProt P51450) activity change, negative = inhibition for COc1ccccc1N1CCN(/N=C/c2ccc(O)cc2O)CC1 = -15.8% [at 1.91 µM] (inactive)

Measured activity change, negative = inhibition (Nuclear receptor ROR-gamma (Mus musculus) (UniProt P51450)), entry CS(=O)(=O)Nc1ccccc1N=C(c1ccccc1)c1ccccc1 : -31.1% [at 1.91 µM] (inactive)

The compound Cc1occc1C(=O)Nc1nnc(C2CCCCC2)s1 , when measured on Nuclear receptor ROR-gamma (Mus musculus) (UniProt P51450), yielded activity change, negative = inhibition of 0% [at 10 µM] (inactive)

// activity change, negative = inhibition (Nuclear receptor ROR-gamma (Mus musculus) (UniProt P51450)) for CCC(=O)c1cn(CCOc2ccccc2OC)c2ccccc12 = -12.4% [at 1.91 µM] (inactive)

Item Cc1cccc(NC(=O)COC(=O)CCc2ccccc2)c1C was tested on Nuclear receptor ROR-gamma (Mus musculus) (UniProt P51450); the reported activity change, negative = inhibition is -18.4% [at 1.91 µM] (inactive)
